tested on: Human colon cancer cell line HRT18; assay: MTT cytotoxicity / cell proliferation assay in HRT18 colon tumour cell line; assay type: cell-based; details: HRT-18, HRT18 cells, 72 h incubation, 0.128-2000 nM, read-out: EC50 (nM) Colorectal cell HRT18

>  <molecule>
C[C@H](NP(=O)(N[C@@H](C)C(=O)OCC(C)(C)C)OC[C@H]1O[C@@H](n2ccc(N)nc2=O)C(F)(F)C1O)C(=O)OCC(C)(C)C (stereo partly drawn) [CPF460]

>  <unitTag>
nM

>  <EC50>
1.6

$$$$
>  <molecule>
CCOC(=O)[C@H](C)NP(=O)(N[C@@H](C)C(=O)OCC)OC[C@H]1O[C@@H](n2ccc(N)nc2=O)C(F)(F)C1O (stereo partly drawn) [CPF459]

>  <unitTag>
nM

>  <EC50>
42

$$$$
>  <molecule>
CC(C)OC(=O)[C@H](C)NP(=O)(N[C@@H](C)C(=O)OC(C)C)OC[C@H]1O[C@@H](n2ccc(N)nc2=O)C(F)(F)C1O (stereo partly drawn) [CPF461]

>  <unitTag>
nM

>  <EC50>
3.2

$$$$
>  <molecule>
C[C@H](NP(=O)(N[C@@H](C)C(=O)OC1CCCCC1)OC[C@H]1O[C@@H](n2ccc(N)nc2=O)C(F)(F)C1O)C(=O)OC1CCCCC1 (stereo partly drawn) [CPF458]

>  <unitTag>
nM

>  <EC50>
31

$$$$
>  <molecule>
C[C@H](NP(=O)(N[C@@H](C)C(=O)OCc1ccccc1)OC[C@H]1O[C@@H](n2ccc(N)nc2=O)C(F)(F)C1O)C(=O)OCc1ccccc1 (stereo partly drawn) [CPF457]

>  <unitTag>
nM

>  <EC50>
14

$$$$
>  <molecule>
Nc1ccn([C@@H]2O[C@H](CO)[C@@H](O)C2(F)F)c(=O)n1 [Gemcitabine, gemcitabine]

>  <unitTag>
nM

>  <EC50>
64

$$$$
